Each record here notes measured ΔTm at 10 µM.
# Subject Of Test: NEK7A (Homo sapiens, UniProt Q8TDX7)
# Construct: purchased in-house DSF kinase panel (SGC-style construct names; the trailing letter is the construct ID)
# Sequence (Q8TDX7 whole entry): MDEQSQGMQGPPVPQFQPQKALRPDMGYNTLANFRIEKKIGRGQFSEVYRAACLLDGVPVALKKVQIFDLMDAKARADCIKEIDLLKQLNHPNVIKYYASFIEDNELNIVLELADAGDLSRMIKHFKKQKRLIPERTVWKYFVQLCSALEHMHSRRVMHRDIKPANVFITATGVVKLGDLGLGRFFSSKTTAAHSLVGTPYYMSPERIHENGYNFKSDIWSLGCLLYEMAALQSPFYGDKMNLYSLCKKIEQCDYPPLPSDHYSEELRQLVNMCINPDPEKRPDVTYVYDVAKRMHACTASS
# Assay Notes: DSF Tm panel
# Assay type: binding
# Condition Summary: 10 μM compound
Note: state the figure and append the unit.

Exercise: For the record "Cc1ccc(F)cc1CNC(=O)Nc1ccc2cc1OCCOCCNc1ccn3ncc-2c3n1" , what value of ΔTm at 10 µM is listed for NEK7A (Homo sapiens, UniProt Q8TDX7)?
Key: 0.9 °C

====

Each record here notes measured ΔTm at 10 µM.
# Subject Of Test: PLK4A (Homo sapiens)
# Construct: purchased in-house DSF kinase panel (SGC-style construct names; the trailing letter is the construct ID)
# Sequence (O00444 2-275): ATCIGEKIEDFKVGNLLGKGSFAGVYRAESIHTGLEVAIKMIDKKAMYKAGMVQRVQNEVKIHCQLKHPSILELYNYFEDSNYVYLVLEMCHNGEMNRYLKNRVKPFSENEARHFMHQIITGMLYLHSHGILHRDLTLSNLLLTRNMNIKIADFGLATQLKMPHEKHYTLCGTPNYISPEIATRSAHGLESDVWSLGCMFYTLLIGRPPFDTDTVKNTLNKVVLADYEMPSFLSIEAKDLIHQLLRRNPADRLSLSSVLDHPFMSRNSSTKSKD
# Assay Notes: DSF Tm panel
# Assay type: binding
# Condition Summary: 10 μM compound
A number alone suffices; assume °C.

O=C(NCc1ccc(Cl)cc1)Nc1ccc2cc1OCCOCCNc1ccn3ncc-2c3n1 [compound 19]
2.5
COc1cccc(CNC(=O)Nc2ccc3cc2OCCOCCNc2ccn4ncc-3c4n2)c1 [compound 30]
3.5
COc1ccc(CNC(=O)Nc2ccc3cc2OCCOCCNc2ccn4ncc-3c4n2)cc1 [compound 31]
4.9
Cc1cc(Cl)ccc1CNC(=O)Nc1ccc2cc1OCCOCCNc1ccn3ncc-2c3n1 [compound 23]
2.8

Exercise: Name the recorded ΔTm at 10 µM for COc1ccc(CNC(=O)Nc2ccc3cc2OCCOCCNc2ccn4ncc-3c4n2)cc1F [compound 32] .
Key: 4.6

====

# Subject Of Test: PIM3A (Homo sapiens)
# Construct: purchased in-house DSF kinase panel (SGC-style construct names; the trailing letter is the construct ID)
# Assay Notes: DSF Tm panel
# Format: binding
# Condition Summary: 10 μM compound
Each record here notes measured ΔTm at 10 µM.
Note: state the figure and append the unit.

Here's what some known entries look like.
C[C@H](NC(=O)Nc1ccc2cc1OCCOCCNc1ccn3ncc-2c3n1)c1ccccc1
4.4 °C
O=C(NCc1ccc(Cl)cc1Cl)Nc1ccc2cc1OCCOCCNc1ccn3ncc-2c3n1
3.3 °C
O=C(NCc1ccc(Cl)cc1F)Nc1ccc2cc1OCCOCCNc1ccn3ncc-2c3n1
3.9 °C

Exercise: Name the recorded ΔTm at 10 µM for "COc1ccc(CNC(=O)Nc2ccc3cc2OCCOCCNc2ccn4ncc-3c4n2)cc1" .
Key: 4.9 °C

Exercise: Name the recorded ΔTm at 10 µM for "O=C(NCc1ccccc1Cl)Nc1ccc2cc1OCCOCCNc1ccn3ncc-2c3n1" .
Key: 2.4 °C

Exercise: Name the recorded ΔTm at 10 µM for "O=C(NCc1ccc(Cl)cc1)Nc1ccc2cc1OCCOCCNc1ccn3ncc-2c3n1" .
Key: 2.4 °C

Exercise: Name the recorded ΔTm at 10 µM for "O=C(NCc1ccc(C(F)(F)F)cc1)Nc1ccc2cc1OCCOCCNc1ccn3ncc-2c3n1" .
Key: 4.3 °C

Exercise: Name the recorded ΔTm at 10 µM for "O=C(NCc1ccccc1)Nc1ccc2cc1OCCOCCNc1ccn3ncc-2c3n1" .
Key: 2.4 °C

====

Each record here notes measured ΔTm at 10 µM.
# Subject Of Test: CASKA (Homo sapiens)
# Construct: purchased in-house DSF kinase panel (SGC-style construct names; the trailing letter is the construct ID)
# Sequence (O14936 12-276): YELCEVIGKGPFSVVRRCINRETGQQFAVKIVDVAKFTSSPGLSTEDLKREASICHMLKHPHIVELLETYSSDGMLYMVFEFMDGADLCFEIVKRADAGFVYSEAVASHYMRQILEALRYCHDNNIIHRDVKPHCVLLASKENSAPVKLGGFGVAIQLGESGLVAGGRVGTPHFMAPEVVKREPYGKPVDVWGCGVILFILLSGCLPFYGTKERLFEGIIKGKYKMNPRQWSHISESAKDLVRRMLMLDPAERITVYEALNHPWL
# Assay Notes: DSF Tm panel
# Assay type: binding
# Condition Summary: 10 μM compound
Note: state the figure and append the unit.

COc1ccc(CNC(=O)Nc2ccc3cc2OCCOCCNc2ccn4ncc-3c4n2)cc1
1.8 °C
COc1ccc(CNC(=O)Nc2ccc3cc2OCCOCCNc2ccn4ncc-3c4n2)cc1F
1.7 °C
COc1cc(CNC(=O)Nc2ccc3cc2OCCOCCNc2ccn4ncc-3c4n2)ccc1F
0.9 °C

Turning now to a further record.
Exercise: Name the recorded ΔTm at 10 µM for "O=C(NCc1cccc(Cl)c1)Nc1ccc2cc1OCCOCCNc1ccn3ncc-2c3n1" .
Key: 2.1 °C
